# Measured On: Lysine-specific demethylase 4A (Homo sapiens)
# Run Description: qHTS Assay for Inhibitors of JMJD2A-Tudor Domain; also: nearly all actives have a fitted effect of over 50% in size
# Test Conditions: AlphaScreen JMJD2A-Tudor / H3K4me3 peptide binding; series mostly up to 114 µM
In all, about 390,000 compounds went through this assay and about 17,000 (4.4%) were called active. Not shown: some 8% with an inconclusive outcome. Calls follow the shape of the dose curve; as a rule, active = well fitted inhibition curve with a large enough effect; inconclusive = small, poorly fitted or top-dose-only effect; inactive = no such curve, though single readings can be large or run the other way. The full list was thinned out, with actives kept by preference.
Labels: active, inactive

[[record]]
compound = "COC(=O)c1ccccc1NC(=O)c1cnn(-c2ccc(F)cc2)c1-n1cccc1"
classification = "inactive"

[[record]]
compound = "O=C1CCCc2cc(S(=O)(=O)N3CCCC(C(=O)NCc4ccccc4)C3)ccc2N1 (stereo not drawn)"
classification = "inactive"

[[record]]
compound = "C=CCn1c(=S)sc2c(=O)[nH]c(C)nc21"
classification = "inactive"

[[record]]
compound = "Cn1c(=O)c2c(nc(SCC(=O)Nc3ccc(F)cc3)n2Cc2ccccc2)n(C)c1=O"
classification = "inactive"

[[record]]
compound = "Cc1c(Cl)cccc1NC(=O)C1CCCN(C(=O)c2cnn(-c3ccccc3)c2-n2cccc2)C1 (stereo not drawn)"
classification = "inactive"

[[record]]
compound = "COc1ccc(NC(=O)NCc2ccc3c(c2)OCO3)c(OC)c1"
classification = "inactive"

[[record]]
compound = "CCN(CC)S(=O)(=O)c1ccc(NC(=O)c2cnc(C)cn2)cc1"
classification = "inactive"

[[record]]
compound = "Cc1ccc2nc3c(cc(C(=O)NC4CCCCC4)c(=N)n3C(C)C)c(=O)n2c1"
classification = "inactive"

[[record]]
compound = "C=CCn1c(CCc2ccc(OC(C)C)cc2)n[nH]c1=S"
classification = "inactive"

[[record]]
compound = "CCn1c2c(c(=O)n3ncc(C(=O)N4CCN(c5ccccc5)CC4)c13)CN(Cc1ccc(OC)cc1)CC2"
classification = "inactive"

[[record]]
compound = "CCOC(=O)c1ccc(NC(=O)c2csc3c2CCCCC3)cc1"
classification = "inactive"

[[record]]
compound = "CCOC(=O)c1cc2c(=O)n3ccccc3nc2n(CC2CCCO2)c1=NC(=O)c1ccccc1Br (stereo not drawn)"
classification = "inactive"

[[record]]
compound = "CCCN(CCC)CCCNC(=O)Cn1cc2c(n1)-c1c(oc(C(=O)N3CCCC3)c1C)CC2"
classification = "inactive"

[[record]]
compound = "COc1ccc(C2C(=O)N(C3CCCCCC3)CC(=O)N2CCc2ccc(Cl)cc2)cc1OC (stereo not drawn)"
classification = "inactive"

[[record]]
compound = "O=C(O)c1ccc2c(c1)N(Cc1ccc(F)cc1)C(=O)c1ccccc1S2=O (stereo not drawn)"
classification = "inactive"

[[record]]
compound = "COc1cc2c(=O)c(S(=O)(=O)c3ccc(C(C)C)cc3)cn(Cc3ccccc3C)c2cc1OC"
classification = "inactive"

[[record]]
compound = "COc1ccc(-c2nc(SCC(=O)N3CCCCC3C)n[nH]2)cc1 (stereo not drawn)"
classification = "inactive"

[[record]]
compound = "Cc1ccc(OCCOCCOc2ccc(Br)cc2/C=N\\NC(=O)c2ccncc2)cc1"
classification = "inactive"

[[record]]
compound = "COc1cc(NS(=O)(=O)c2cccs2)cc(OC)c1"
classification = "inactive"

[[record]]
compound = "C=CCn1c(C23CC4CC(CC(C4)C2)C3)n[nH]c1=S"
classification = "active"

[[record]]
compound = "C=CCn1c(SCC(=O)NC)nnc1C12CC3CC(CC(C3)C1)C2"
classification = "inactive"

[[record]]
compound = "Cc1cccc(NC(=O)COc2ccc(Br)cc2C)n1"
classification = "inactive"

[[record]]
compound = "COc1ccc(NC(=O)c2cc3cc(C)ccc3n2C)cc1"
classification = "inactive"

[[record]]
compound = "Brc1ccccc1C1N=C(c2ccccc2)NO1 (stereo not drawn)"
classification = "inactive"

[[record]]
compound = "CCc1ccc(CNC(=O)C2CCN(c3nn4cc(-c5ccc(F)cc5)nc4s3)CC2)cc1"
classification = "inactive"

[[record]]
compound = "O=C(c1ccc(C(F)(F)F)cc1)N1CCC(c2nc(-c3ccc(S(=O)(=O)N4CCCC4)cc3)no2)CC1"
classification = "inactive"

[[record]]
compound = "O=C(NCc1ccc2c(c1)OCO2)C12CC3CC(CC(C3)C1)C2"
classification = "inactive"

[[record]]
compound = "CC(C)c1cc(C(=O)O)n[nH]1"
classification = "active"

[[record]]
compound = "CCc1ccc(NC(=O)CSc2nc3c([nH]c4ccccc43)c(=O)n2-c2cccc(OC)c2)cc1"
classification = "inactive"

[[record]]
compound = "CCOC(=O)c1cccc(NC(=O)c2cc(CN3CCCC3)on2)c1"
classification = "inactive"

[[record]]
compound = "Cc1ccc(CNC(=O)c2cccnc2Cl)cc1"
classification = "inactive"

[[record]]
compound = "NS(=O)(=O)c1ccc(NC(=O)CSc2nnc3c(n2)[nH]c2ccccc23)cc1"
classification = "inactive"

[[record]]
compound = "CCc1cccc(NC(=O)Cn2nc(CC)n3c(cc4cc(C)ccc43)c2=O)c1"
classification = "inactive"

[[record]]
compound = "Cc1ccc(Cl)cc1NC(=O)CSc1nccn1C"
classification = "inactive"

[[record]]
compound = "COc1ccccc1-c1ccnc2[nH]n(-c3ccccc3)c(=O)c12"
classification = "inactive"

[[record]]
compound = "CCC(C)NCCOCCOc1ccc(Br)cc1C (stereo not drawn)"
classification = "active"

[[record]]
compound = "C=CCn1c(SCC(=O)NC23CC4CC(CC(C4)C2)C3)nc(O)cc1=O"
classification = "inactive"

[[record]]
compound = "CCCn1c(=N)n(CC(O)COc2ccccc2OC)c2ccccc21 (stereo not drawn)"
classification = "inactive"

[[record]]
compound = "Cc1ccc(CNCc2ccc3c(c2)OCO3)c(C)c1"
classification = "active"

[[record]]
compound = "Cc1oc2ncnc(N3CCOCC3)c2c1C(=O)NCCc1ccccc1"
classification = "inactive"

[[record]]
compound = "O=C(CCc1nc(CN2CCN(S(=O)(=O)c3ccc(Br)cc3)CC2)no1)N1CCCCC1"
classification = "inactive"

[[record]]
compound = "CCOC(=O)c1ccc(N2C(=O)c3[nH]nc(-c4ccccc4)c3C2c2ccc(C(C)C)cc2)cc1 (stereo not drawn)"
classification = "inactive"

[[record]]
compound = "COc1ccc(CNC(=O)Cn2nnc(-c3ccccc3F)n2)cc1"
classification = "inactive"

